# Tested on: HIV-1 nucleocapsid protein NCp7 (binding to TG oligonucleotide)
# assay.explanation: HIV Nucleocapsid (AID 346);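 note: potency is the fitted concentration of half-maximal effect; potency is for inhibitors that block NC binding and lower polarization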
# details: HIV-1 NC / fluorescein-TGTGTGTG probe, fluorescence polarization
# Protocol: NCGC Assay Overview: HIV-1 nucleocapsid protein (HIV-1 NC) is a small (6.5 kDa) basic zinc-finger protein which participates in packaging of viral genomic RNA. The spacing and metal-chelating residues (3 Cys, 1 His) of the Cys-X2-Cys-X4-His-X4-Cys Zn fingers are conserved among all known retroviruses (J. Med. Chem. 1998, 41, 1371-1381). […] NCGC Assay Protocol Summary: Buffer. […] The plates were incubated for 1 hr at room temperature, and then read on ViewLux (Perkin-Elmer). […]
The source made the active and inactive calls. The rule behind the calls is not given here.
experimental.endpoint: Potency

Illustrative cases are given below, each with its answer.
| mol.smiles | Potency |
| --- | --- |
| CN1CCN(c2ncc3nc(-c4cccc(C#N)c4)c(=O)n(Cc4ccc(F)cc4)c3n2)CC1 | > 20 µM (inactive) |
| CC(=O)NCCNc1ncncc1-c1ccccc1C | > 20 µM (inactive) |
| COC(=O)N1CCC2(CCCN(Cc3ccc(C#N)cc3)C2)CC1 | > 20 µM (inactive) |

// batch mode: one Potency value per listed entry
1. O=C(c1csnn1)N1CCC2(CC1)CN(Cc1cc(C(F)(F)F)cc(C(F)(F)F)c1)C2
2. Cc1cnc(CNc2cc(-c3ccc(N(C)C)cc3)ncn2)cn1
3. O=C(c1cc(C(F)(F)F)cc(C(F)(F)F)c1)N1CCC2(CCCN(c3ccccc3)C2)CC1
4. O=c1c(-c2ccc(F)cc2)nc2cnc(N3CCOCC3)nc2n1C1CC1
5. CN1CCC2(CC1)CCN(C(=O)c1cc(C(F)(F)F)cc(C(F)(F)F)c1)CC2
6. Cc1noc(C)c1C(=O)N1CCC2(CCN(Cc3ccc(C#N)cc3)CC2)CC1
7. COc1ccccc1CN1CC2(CCN(C(=O)c3cccc(F)c3)CC2)C1

Reply:
1: > 20 µM (inactive); 2: > 20 µM (inactive); 3: > 20 µM (inactive); 4: > 20 µM (inactive); 5: > 20 µM (inactive); 6: > 20 µM (inactive); 7: > 20 µM (inactive)

meta.source: PubChem BioAssay (NCATS)
